test: qHTS assay to identify small molecule antagonists of the estrogen receptor alpha (ER-alpha) signaling pathway using the BG1 cell line - cell viability counter screen (AID 743081); details: BG1Luc4E2 viability, CellTiter-Fluor, 22 h; series mostly up to 70.3 µM;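 also: compound given together with 17beta-estradiol as the ER stimulus; nearly all actives have a fitted effect of over 45% in size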
Results filed as inconclusive are left out. The source made the active and inactive calls. Calls follow the shape of the dose curve; as a rule, active = well fitted cell-killing curve with a large enough effect in the repeat runs; inconclusive = weak or mixed curves, or effect the other way; inactive = flat fitted curve, though single readings scatter.
Returns: one label drawn from 1.0 = active, 0.0 = inactive

In: Please state the recorded outcome for this molecule: CC(=O)OC1(c2ccccc2)CCN(CCc2ccccc2)CC1
Out: 0.0

In: Please state the recorded outcome for this molecule: c1ccc(OCC2CO2)cc1 (centres undefined)
Out: 0.0

In: Please state the recorded outcome for this molecule: O=C(O)c1cc[c]([Hg][Cl])cc1
Out: 0.0

In: Please state the recorded outcome for this molecule: Oc1c(Br)c(Br)c(Br)c(Br)c1Br
Out: 0.0

In: Please state the recorded outcome for this molecule: Clc1ccc(CSC(Cn2ccnc2)c2ccc(Cl)cc2Cl)cc1 (centres undefined)
Out: 0.0

In: Please state the recorded outcome for this molecule: CC(C)OS(C)(=O)=O
Out: 0.0

In: Please state the recorded outcome for this molecule: Clc1ccc(CCC(Cn2ccnc2)Sc2c(Cl)cccc2Cl)cc1 (centres undefined)
Out: 0.0

In: Please state the recorded outcome for this molecule: Nc1ccccc1C(=O)Oc1ccc2ccccc2c1
Out: 0.0

In: Please state the recorded outcome for this molecule: CCCCCCCCCCCCCCCC[N+](C)(C)C
Out: 0.0

In: Please state the recorded outcome for this molecule: Oc1ccc2ccc3cccc4ccc1c2c34
Out: 0.0

In: Please state the recorded outcome for this molecule: C[C@H]1O[C@@H](O[C@H]2[C@@H](O)C[C@H](O[C@H]3[C@@H](O)C[C@H](O[C@H]4CC[C@@]5(C)[C@H](CC[C@@H]6[C@@H]5CC[C@]5(C)[C@@H](C7=CC(=O)OC7)CC[C@]65O)C4)O[C@@H]3C)O[C@@H]2C)C[C@H](O)[C@@H]1O
Out: 0.0

In: Please state the recorded outcome for this molecule: CN(C)[C@@H]1C(=O)C(C(N)=O)=C(O)[C@@]2(O)C(=O)C3=C(O)c4c(O)ccc(Cl)c4[C@@](C)(O)[C@H]3C[C@@H]12
Out: 0.0

In: Please state the recorded outcome for this molecule: ClCc1ccc(Cl)cc1Cl
Out: 0.0

In: Please state the recorded outcome for this molecule: CN(C)CCc1c[nH]c2ccc(O)cc12
Out: 0.0

In: Please state the recorded outcome for this molecule: CC(C)(O)c1cnn2c(-c3ccc(F)c(-c4c(F)cccc4C#N)c3)cnc2n1
Out: 0.0

In: Please state the recorded outcome for this molecule: c1ccc(Nc2ccc3ccccc3c2)cc1
Out: 0.0

In: Please state the recorded outcome for this molecule: Cc1cc(C)c(C2=C(OC(=O)CC(C)(C)C)C3(CCCC3)OC2=O)c(C)c1
Out: 0.0

In: Please state the recorded outcome for this molecule: [Hg+2].[I-].[I-]
Out: 1.0

In: Please state the recorded outcome for this molecule: N#CCCC(Br)(C#N)CBr (centres undefined)
Out: 0.0

In: Please state the recorded outcome for this molecule: CC1(C)C(/C=C(\Cl)C(F)(F)F)C1C(=O)OC(C#N)c1cccc(Oc2ccccc2)c1 (centres undefined)
Out: 0.0

In: Please state the recorded outcome for this molecule: CC(C)CC(C)(c1ccc(O)cc1)c1ccc(O)cc1
Out: 0.0

In: Please state the recorded outcome for this molecule: CC(C)CCCCCOC(=O)c1ccccc1C(=O)OCCCCCC(C)C
Out: 0.0

In: Please state the recorded outcome for this molecule: Cc1cc(C(C)(C)c2cc(C)c(O)c(C)c2)cc(C)c1O
Out: 0.0

In: Please state the recorded outcome for this molecule: O=C/C(Cl)=C(/Cl)C(=O)O
Out: 0.0
